TESTED_ON: Calpain-2 catalytic subunit (Sus scrofa)
Sequence (P43367 whole entry): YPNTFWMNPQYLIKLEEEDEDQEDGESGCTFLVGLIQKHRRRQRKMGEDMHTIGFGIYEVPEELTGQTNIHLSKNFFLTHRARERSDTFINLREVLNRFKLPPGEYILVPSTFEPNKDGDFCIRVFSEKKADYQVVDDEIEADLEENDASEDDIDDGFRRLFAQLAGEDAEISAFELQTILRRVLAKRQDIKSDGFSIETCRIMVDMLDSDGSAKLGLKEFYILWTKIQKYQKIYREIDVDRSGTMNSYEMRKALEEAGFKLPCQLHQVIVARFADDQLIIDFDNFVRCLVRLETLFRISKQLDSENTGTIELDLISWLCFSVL
TEST: m-calpain protease blockers, concentration series – biochemical, fluorogenic peptide substrate, dose response (AID 1420)
Format: functional
READOUT_LABEL: IC50

MOLECULE	MEASURED_VALUE
CC(C)c1ccc(NC(S)=NC2CC3C=CC2C3)cc1 (centres undefined)	42.5 µM (not active)
O=C(Nc1ccc(Cl)c(Cl)c1)OCCNC(=O)c1cccc(Cl)c1	2.99 µM (not active)
COC(=O)c1ccccc1NC(=O)N1CCN(c2ccc(F)cc2)CC1	8.67 µM (not active)
O=C(c1cccc(COc2ccc(Cl)cc2Cl)c1)N1CCN(c2ccccn2)CC1	> 50 µM (not active)

---

Test system: INS1
TEST: INS-1E survival protection against cytokine death – cell-based, luminescence, retest, dose response (AID 449756);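 note: cell death triggered by IL-1 beta plus TNF-alpha plus IFN-gamma mixture; protective hits raise ATP signal compared with cytokine alone wells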
Type: functional
ASSAY_CONTEXT: Rattus norvegicus
The source made the active and inactive calls.
Quick list: AC50 per entry.
READOUT_LABEL: AC50

COMPOUND	MEASURED_VALUE
Cc1csc2c(N3CCN(C(=O)c4ccc(C(C)(C)C)cc4)CC3)ncnc12	13.2 µM (active)
O=C(Nc1cccc(C(F)(F)F)c1)Oc1ccc(Cl)c2cccnc12	7.15 µM (active)
CCCCCc1cc(=O)oc2c(C(CCN(CC)CC)c3ccc(OC)cc3)c(OC)cc(OC)c12 (stereo unspecified)	10.8 µM (active)
Cc1ccc(NC2=CC(=O)C(=O)c3ccccc32)cc1	2.63 µM (active)
CCc1cc(C(=O)NC2CCCc3c2cnn3-c2cccc(C)c2C)n(C)n1 (stereo unspecified)	< 0.195 µM (active)
O=C(CCC(=O)Nc1ccc(Cl)cc1Cl)N/N=C/c1ccc([N+](=O)[O-])o1	15.2 µM (active)

---

IC50 values for the compounds below.
TESTED_ON: Genome polyprotein (dengue virus type 2)
TEST: flavivirus cap methylation enzyme inhibition – biochemical, confirmation dose response, primary screen (AID 588689)
Assay type: functional
The source made the active and inactive calls.

COMPOUND	TESTED_ON	IC50
CCOc1ccc(S(=O)(=O)Nc2cc(SCC(=O)O)c(O)c3ccccc23)cc1	Genome polyprotein (dengue virus type 2)	7.49 µM (active)
COc1cccc(/C=C2\SC(=S)N(C(C(=O)O)c3ccccc3)C2=O)c1OC (stereo not given)	Genome polyprotein (dengue virus type 2)	49.7 µM (active)
O=C(O)c1ccc(S(=O)(=O)/N=C2\C=C(Nc3ccccc3F)C(=O)c3ccccc32)cc1	Genome polyprotein (dengue virus type 2)	11.2 µM (active)
COC1C=COC2(C)Oc3c(C)c(O)c4c(O)c(c(CN5CCN(C)CC5)c(O)c4c3C2=O)NC(=O)C(C)=CC=CC(C)C(O)C(C)C(O)C(C)C(OC(C)=O)C1C (stereo not given)	Genome polyprotein (dengue virus type 2)	96.6 µM (active)
CCOc1cc(/C=N/NC2=NC(=O)C(CC(=O)O)S2)ccc1OCc1ccccc1Cl (stereo not given)	Genome polyprotein (dengue virus type 2)	51.7 µM (active)

---

Here's what we have: AC50 numbers for Cytochrome P450 3A4 (Homo sapiens, UniProt P08684).

RECORD_SMILES	AC50
O=[N+]([O-])c1ccccc1CSc1nc(O)c2nc[nH]c2n1	3.98 µM (inconclusive)
COc1ccccc1-c1nc(N2CCOCC2)c2ccccc2n1	15.8 µM (inconclusive)
Cc1ccc(NCCC(=O)c2ccc(Cl)cc2)cc1C	3.55 µM (inconclusive)
CCc1cc2c(nc1CC)CCN(CC/C(C)=N/OC[C@H]1O[C@H](c3ccccc3)C=C[C@@H]1Oc1ccc(OC)cc1)C2	6.31 µM (inconclusive)
Oc1ccc2c3c1O[C@H]1c4[nH]c5ccccc5c4C[C@]4(O)[C@H](C2)N(CC2CC2)CC[C@@]314	0.01 µM (inconclusive)
Cc1ccc(C(=O)NC(=S)NCC(=O)c2ccccc2)cc1	8.91 µM (inconclusive)
Clc1ccccc1-c1cc(NCc2cccnc2)ncn1	10 µM (inconclusive)
COc1ccc(-c2nc3cnc(N4CCNCC4)nc3n(Cc3ccc(F)cc3)c2=O)cc1	15.8 µM (inconclusive)
COc1ccc(NC(=O)N2CC[C@@]3(CCCN(S(C)(=O)=O)C3)C2)cc1	39.8 µM (inconclusive)
O=C(Nc1ccccc1N1CCOCC1)c1cnccn1	14.1 µM (inconclusive)
COc1cc([C@H](O)CO)ccc1O	0.0316 µM (inconclusive)
CCOC(=O)c1c(C)[nH]c2ccc3c(c12)CN1CCc2cc(OC)ccc2[C@@H]1O3	2.51 µM (inconclusive)
C[C@](O)(C(=O)Nc1ccc(S(=O)(=O)c2ccccc2)cc1)C(F)(F)F	31.6 µM (inconclusive)
Cc1ccc(-c2nnc(-c3ccc4ccccc4c3)o2)cc1	6.31 µM (inconclusive)
CN(C)Cc1ccccc1-c1nc(NCc2cccs2)c2ccccc2n1	6.31 µM (inconclusive)
CNc1nc(-c2ccccc2OC)nc2ccccc12	31.6 µM (inconclusive)
CCOC(=O)C1=C(O)/C(=C\c2ccc(OC)c(OC)c2)N=C1C	15.8 µM (inconclusive)
